These measurements were taken from ChEMBL document CHEMBL3758105.

molecular target: UniProtKB P45452; assay: Inhibition of full length human recombinant MMP13 using MCA-Arg-Pro-Leu-Gly-Leu-Dpa-Ala-Arg-Glu-Arg-NH2 as substrate preincubated for 60 mins followed by substrate addition by fluorescence assay
readout_label: log10 of Ki (log10 of the value in nM)
Scale: decimal log of Ki, Ki in nM.

Documented log10 of Ki of COc1cccc(CNC(=O)c2cc(-c3nnn(CC4CCCOC4)n3)cc(C)n2)c1 (racemic) : 1.22

Documented log10 of Ki of Cc1cc(-c2nnn(C[C@H]3CC[C@H](CO)CC3)n2)cc(C(=O)NCc2ccc(F)cc2)n1 : 1.52

Documented log10 of Ki of Cc1cc(-c2nnn(C[C@H]3CC[C@H](CO)CC3)n2)cc(C(=O)NCc2ccc(F)c(C(F)(F)F)c2)n1 : 0.80

Documented log10 of Ki of Cc1cc(-c2nnn(C[C@H]3CC[C@H](CO)CC3)n2)cc(C(=O)NCc2cccc(F)c2)n1 : 2.04

Documented log10 of Ki of COc1cccc(CNC(=O)c2cc(-c3nnn(CC4CCCCO4)n3)cc(C)n2)c1 (single isomer, unassigned; (+)) : 1.23

Documented log10 of Ki of COc1cc(CNC(=O)c2cc(-c3nnn(C[C@H]4CO[C@H](C(=O)O)CO4)n3)nc(C)n2)ccc1F : -0.70

Documented log10 of Ki of COc1cccc(CNC(=O)c2cc(-c3nnn(C[C@H]4CC[C@H](C(N)=O)CC4)n3)cc(C)n2)c1 : 1.33

Documented log10 of Ki of COc1cccc(CNC(=O)c2cc(-c3nnn(C[C@H]4CC[C@@H](NC(C)=O)CC4)n3)cc(C)n2)c1 : 0.15
